- Measured on: IDH1 R132H (Homo sapiens, UniProt O75874, R132H)
- Sequence (O75874 whole entry R132H): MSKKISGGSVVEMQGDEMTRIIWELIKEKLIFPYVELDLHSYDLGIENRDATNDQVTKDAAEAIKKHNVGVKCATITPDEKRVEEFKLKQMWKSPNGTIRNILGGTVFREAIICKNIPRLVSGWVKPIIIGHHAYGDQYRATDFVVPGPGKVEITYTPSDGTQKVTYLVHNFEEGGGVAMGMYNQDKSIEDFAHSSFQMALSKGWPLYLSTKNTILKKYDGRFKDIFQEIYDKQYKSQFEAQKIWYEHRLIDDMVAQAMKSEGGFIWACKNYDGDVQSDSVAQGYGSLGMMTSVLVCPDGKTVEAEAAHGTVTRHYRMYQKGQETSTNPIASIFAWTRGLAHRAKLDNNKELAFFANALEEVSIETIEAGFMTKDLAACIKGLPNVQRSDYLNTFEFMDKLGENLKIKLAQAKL
- Method summary: Assay for IDH1 R132H inhibitors (NADPH/aKG, resazurin detection)
- Assay type: biochemical
- Assay context: Table 3; enzyme assay, 50 minutes at room temperature; read-out: IC50 (IDH1 R132H Inhibition)
Assay metric: IC50

Compound | IC50
COCCC(=O)N1CCN(c2nc(C(C)C)c(-c3cccc(OC(F)(F)F)c3)cc2C#N)C[C@H]1C [Compound 230] | 1 to 5 µM
Cc1cccc(-c2cc(C#N)c(N3CCN(C(=O)c4ccoc4C)[C@H](C)C3)nc2C(C)C)c1 [Compound 200] | 1 to 5 µM
COCCC(=O)N1CCN(c2nc(C3CC3)c(-c3ccc(OC)c(OC)c3)cc2C#N)C[C@H]1C [Compound 237] | 1 to 5 µM
COCCC(=O)N1CCN(c2nc(C3CC3)c(-c3cccc(OC(F)(F)F)c3)cc2C#N)C[C@H]1C [Compound 228] | 1 to 5 µM
CC(C)c1cc(-c2cccc(F)c2)c(C#N)c(N2CCN(C(=O)c3ccoc3)C(C)C2)n1 (stereo not drawn) [Compound 128] | 1 to 5 µM

Query: Name the recorded IC50 of the item Cc1occc1C(=O)N1CCN(c2nc(C(C)C)c(-c3ccoc3)cc2C#N)C[C@H]1C [Compound 203] in your answer.
Reply: 1 to 5 µM

Query: Name the recorded IC50 of the item CC(C)c1cc(-c2ccccc2)c(C#N)c(N2CCN(C(=O)Cc3ccccc3)C(C)C2)n1 (stereo not drawn) [Compound 121] in your answer.
Reply: 5 to 15 µM

Query: Name the recorded IC50 of the item CC(C)c1nc(N2CCN(C(=O)c3ccco3)[C@H](C)C2)c(C#N)cc1-c1ccc(C(F)(F)F)cc1 [Compound 185] in your answer.
Reply: 1 to 5 µM

Query: Name the recorded IC50 of the item COc1ccccc1-c1cc(C#N)c(N2CCN(C(=O)c3ccoc3C)[C@H](C)C2)nc1C(C)C [Compound 178] in your answer.
Reply: 1 to 5 µM

Query: Name the recorded IC50 of the item COCCC(=O)N1CCN(c2nc(C(C)C)c(-c3ccc(C)c(C)c3)cc2C#N)C[C@H]1C [Compound 220] in your answer.
Reply: 1 to 5 µM

Query: Name the recorded IC50 of the item COCCC(=O)N1CCN(c2nc(C(C)C)c(-c3ccc4c(c3)OCO4)cc2C#N)C[C@H]1C [Compound 224] in your answer.
Reply: ≤ 1 µM

Query: Name the recorded IC50 of the item Cc1occc1C(=O)N1CCN(c2nc(C(C)C)c(-c3ccccc3)cc2C#N)C[C@H]1C [Compound 164] in your answer.
Reply: 1 to 5 µM

Query: Name the recorded IC50 of the item COCCC(=O)N1CCN(c2nc(C(C)C)c(-c3ccc4ccccc4c3)cc2C#N)C[C@H]1C [Compound 211] in your answer.
Reply: 1 to 5 µM

Query: Name the recorded IC50 of the item CC(C)c1nc(N2CCN(C(=O)c3ccoc3)C(c3ccccc3)C2)c(C#N)cc1-c1ccccc1 (stereo not drawn) [Compound 153] in your answer.
Reply: 5 to 15 µM

Query: Name the recorded IC50 of the item CC(C)c1nc(N2CCN(C(=O)Cc3cccs3)[C@H](C(C)C)C2)c(C#N)cc1-c1ccc(C(F)(F)F)cc1 [Compound 196] in your answer.
Reply: 1 to 5 µM
